ENDPOINT: melting point

MOLECULE: CN1CCN(c2cccc3c2OC(C(=O)Nc2ccc(N4CCOCC4)cc2)CC3)CC1 (single isomer, unassigned; (-)) [Example 77]
melting point: 205.5 to 207 °C

Now consider the entry below.
Query: I'd like to know its melting point. The molecule in question is CN1CCN(c2cccc3c(=O)cc(-c4nc5ccc(N6CCOCC6)cc5o4)oc23)CC1 [Example 21]
Result: 158.1 to 158.8 °C

====

Entries and their measured melting point follow.

Consider the following illustrative entries.
COMPOUND: CN1CCN(c2cccc3c2OC(C(=O)Nc2ccc(N4CCOCC4)cc2)CC3=O)CC1 (racemic) [Example 78]
melting point: 215 to 216 °C
//
COMPOUND: CCNC(=O)N1CCN(c2ccc(NC(=O)c3cc(=O)c4cc(F)cc(N5CCN(C)CC5)c4o3)cc2)CC1
melting point: 236 to 238 °C
//
COMPOUND: CN1CCN(c2cc(F)cc3c(=O)cc(C(=O)Nc4ccc(N5CCN(C(=O)CCO)CC5)cc4)oc23)CC1
melting point: 195 to 199 °C
//
COMPOUND: CN1CCN(c2cccc3c2OC(C(=O)Nc2ccc(N4CCOCC4)cc2)CC3=O)CC1 (single isomer, unassigned) [Example 79]
melting point: 216 °C (dec.)
//
COMPOUND: CN1CCN(c2cccc3c2OC(C(=O)Nc2ccc(N4CCOCC4)cc2)CC3)CC1 (single isomer, unassigned; (+)) [Example 76]
melting point: 206 to 207 °C

Next:
Query: So what's the measured melting point for this one? CN1CCN(c2cccc3c(=O)cc(C(=O)Nc4ccc(N5CCOCC5)cc4O)oc23)CC1
Result: 248.4 to 249.6 °C

====

Below is a list of entries, each paired with its recorded melting point value.

// known answers, use as guide
COMPOUND: CN1CCN(c2cccc3c2OC(C(=O)Nc2ccc(N4CCOCC4)cc2)CC3=O)CC1 (single isomer, unassigned) [Example 80]
melting point: 215 °C (dec.)
//
COMPOUND: COc1cc(N2CCN(C)CC2)c2oc(C(=O)Nc3ccc(N4CCN(C(=O)CCO)CC4)cc3)cc(=O)c2c1 [Example 68]
melting point: 195 to 197 °C
//
COMPOUND: COc1cc(N2CCN(C)CC2)c2oc(C(=O)Nc3ccc(N4CCOCC4)cc3)cc(=O)c2c1 [Example 31]
melting point: 234 to 236 °C
//
COMPOUND: CCS(=O)(=O)N1CCN(c2ccc(NC(=O)c3cc(=O)c4cc(F)cc(N5CCN(C)CC5)c4o3)cc2)CC1 [Example 71]
melting point: 233 to 234 °C

Query: Can you look up the measured melting point of CN1CCN(c2cccc3c(=O)cc(C(=O)Nc4ccc(N5CCOCC5)cc4)oc23)CC1 [Example 1] for me?
Result: 217 to 218 °C (dec.)

Query: And then CN1CCN(c2cccc3c2OC(C(=O)Nc2ccc(N4CCOCC4)cc2)CC3)CC1 (racemic) [Example 75] , what is it?
Result: 215 to 216 °C
